System: SF-268
Experiment: NCI tumour cell line growth inhibition, 48 h
Active and inactive are the calls of the source. No stated cut-off is given here; in the data, active = GI50 up to about 1.1 µM and inactive = higher.
Field 'call' accepts active, inactive

// param item: "C=CCC1(O)c2cccc(O)c2C(=O)c2c(O)cccc21" ; yields the recorded call
inactive

Repeat for the following compound: CCOC(=O)C1(Br)C(c2ccccc2)NC(=O)N(C2OC(COC(=O)c3ccccc3)C(OC(=O)c3ccccc3)C2OC(=O)c2ccccc2)C1(C)Br (stereo not given)
inactive

Repeat for the following compound: "O=c1[nH]nc(Cc2ccccc2)n1/N=C/c1c[nH]c2ccccc12"
inactive

Repeat for the following compound: COc1nc(NC2OCC(O)C(O)C2O)c(NC2OCC(O)C(O)C2O)c(=O)n1C (stereo not given)
inactive

Repeat for the following compound: "COc1cc(/C=C\c2ccc(SC)cc2)cc(OC)c1OC"
active

Repeat for the following compound: COc1cc(C2c3cc4c(cc3[C@@H](OCCN(C)C)C3COC(=O)[C@H]23)OCO4)cc(OC)c1O (stereo not given in full)
active

Repeat for the following compound: "O=C1c2ccccc2-c2c1c1ccccc1c(=O)n2Cc1ccccc1"
inactive

Repeat for the following compound: CSc1nc(NC2OCC(O)C(O)C2O)c(N)c(=O)n1C (stereo not given)
inactive

Repeat for the following compound: "O=c1oc2ccc([N+](=O)[O-])cc2cc1Br"
inactive

Repeat for the following compound: O=C1CSC(/C=C/c2ccccc2)N1c1ccc(-n2c(-c3ccccc3)nc3ccccc3c2=O)cc1 (stereo not given)
inactive

Provenance of the data: ChEMBL document CHEMBL1201862
